molecular target: Fibroblast growth factor 2 (Homo sapiens) (UniProt P09038); test: FGF2 binders on small-molecule microarrays, primary screen, biochemical, small-molecule microarray, 635/667 nm fluorescence (AID 1133); conditions: small-molecule microarray binding, FGF2, fluorescence 635/667; higher = more signal
Sequence (P09038 whole entry, looked up): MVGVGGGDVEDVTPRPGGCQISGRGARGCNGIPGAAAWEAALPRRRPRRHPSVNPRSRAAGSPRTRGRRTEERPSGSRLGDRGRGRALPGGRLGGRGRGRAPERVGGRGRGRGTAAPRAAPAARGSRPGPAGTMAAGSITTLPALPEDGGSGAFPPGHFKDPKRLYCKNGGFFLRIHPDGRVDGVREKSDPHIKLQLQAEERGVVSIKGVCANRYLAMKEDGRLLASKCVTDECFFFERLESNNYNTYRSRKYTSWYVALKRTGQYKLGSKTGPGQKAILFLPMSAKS
ENDPOINT NAME: composite z-score

MOLECULE: Cc1cc(C)c(C(O)C2C=CC3C(=O)NC(=O)C3N2Nc2ccc(Cl)cc2Cl)c(C)c1 (stereo unspecified)
TESTED ON: Fibroblast growth factor 2 (Homo sapiens) (UniProt P09038)
composite z-score: 0.752

Recall and state the measured composite z-score for C=C(COC)/C(=C/C[C@H](OC(=O)c1ccncc1)c1ccccc1OCCO)c1cnc2ccccc2c1 .
1.35

Consider the molecule COC(=O)[C@@]1(Cc2ccccc2)[C@H]2c3cc(C(=O)N(C)C)n(CCc4ccc(O)c(OC)c4)c3C[C@H]2CN1C(=O)c1ccccc1 and give its recorded composite z-score.
0.273

====

molecular target: Fibroblast growth factor 2 (Homo sapiens); assay: FGF2 binders on small-molecule microarrays, primary screen, biochemical, small-molecule microarray, 635/667 nm fluorescence (AID 1133); conditions: small-molecule microarray binding, FGF2, fluorescence 635/667; higher = more signal
ENDPOINT NAME: composite z-score
Please reply with the number alone, leaving off any unit.

For Fibroblast growth factor 2 (Homo sapiens), give composite z-score of the listed compound: C=CC[C@]1(C(=O)NCCN2CCOCC2)N=C(c2ccc(OCCCO)cc2)O[C@H]1c1ccccc1CN=[N+]=[N-]
1.68

State recorded composite z-score with Fibroblast growth factor 2 (Homo sapiens), entry CC(=O)c1ccc(C(O)C2C=CC3C(=O)N(c4ccccc4)C(=O)C3N2Nc2ccc(C#N)cc2)cc1 (configuration not stated) , no comment.
0.196

Write down the reported composite z-score (system: Fibroblast growth factor 2 (Homo sapiens)) of COCCOC(=O)N1C(=O)[C@@]2(c3cc(C#CC4=CCCCC4)ccc31)[C@H](c1ccccc1OCCO)N1[C@H](c3ccccc3)[C@H](c3ccccc3)OC(=O)[C@H]1[C@@H]2C(=O)Nc1nc2ccccc2s1
0.731

Output reported composite z-score of the compound COC(=O)C1=CC(CCCO)=CC(C2CC2)N(C)C=C1C(=O)OC (configuration not stated) on Fibroblast growth factor 2 (Homo sapiens).
-0.539

Give composite z-score for C=CCC(OC(C)=O)[C@@H]1[C@@H](N(Cc2ccc(-c3ccccc3)cc2)C(=O)Cc2ccc(F)cc2)c2cc(OCCCO)ccc2N1C(=O)Cc1ccc(OC)cc1 (some centres not stated) tested on Fibroblast growth factor 2 (Homo sapiens).
-0.472

Report its composite z-score with Fibroblast growth factor 2 (Homo sapiens) as the test system: CC(C)C[C@@H]1NC(=O)[C@@H]2C[C@H](C(=O)NCCCCN(C)C)[C@H](c3cccc(OCCO)c3)N2C1=O
0.549

Report its composite z-score with Fibroblast growth factor 2 (Homo sapiens) as the test system: [N-]=[N+]=NCc1ccccc1C[C@@]1(C(=O)N2CCOCC2)N=C(c2ccc(OCCCO)cc2)O[C@@H]1c1ccccc1
0.399

====

system: Wnt5a (protein binding on small-molecule microarray); test: Wnt5a binders on small-molecule microarray, primary screen, biophysical, 635/667 nm fluorescence (AID 1142); settings: 635 nm fluorescence, higher = more signal;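 also: fluorescence read at 667 nm with signal to noise per printed feature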
ENDPOINT NAME: composite z-score
Provide a numeric answer; units are not to be included.

Take a look at these entries with their results.
COMPOUND: C=C(C(=O)CC[C@@H](OC(C)=O)c1ccc(CO)o1)C(C)C
ENDPOINT NAME: composite z-score
RECORDED MEASUREMENT: 0.911
//
COMPOUND: CC(C)C(CO)N1C(=O)[C@@H]2C3C(=O)OCCC/C=C\[C@H]3OC23C=CCN(C(C)(C)C)C(=O)[C@@H]13 (stereo not given in full)
ENDPOINT NAME: composite z-score
RECORDED MEASUREMENT: -0.0407

Report composite z-score for Cc1ccccc1C(O)C1C=CC2C(=O)N(C)C(=O)C2N1N(c1ccccc1)c1ccccc1 (stereo not given)
0.613

====

assay: RPMI8226 myeloma cell viability, profiling panel, resazurin fluorescence, basal, 24 h, PK04 Diversity Set (AID 1180); conditions: higher = more signal;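 also: RPMI8826 multiple myeloma cell line at 5000 cells per well; test concentration not given here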
z-score below -0.4 gives 0 (no); z-score at or above it gives 1 (yes).

Consider the worked cases shown below.
COMPOUND: CN1C(=O)C2C=CC(C(O)c3ccccn3)N(N(c3ccccc3)c3ccccc3)C2C1=O (configuration not stated)
CATEGORY LABEL: 1 (yes)
--
COMPOUND: COCCOC(=O)N1C(=O)[C@@]2(c3cc(C#Cc4ccc(OC)cc4)ccc31)[C@H](C(=O)Nc1nc3ccccc3s1)[C@H]1C(=O)O[C@H](c3ccccc3)[C@H](c3ccccc3)N1[C@@H]2c1ccc(OCCO)cc1
CATEGORY LABEL: 0 (no)
--
COMPOUND: COCCOC(=O)N1C(=O)[C@@]2(c3cc(C#CC4=CCCCC4)ccc31)[C@H](c1ccccc1OCCO)N1[C@H](c3ccccc3)[C@H](c3ccccc3)OC(=O)[C@H]1[C@@H]2C(=O)N1CCCCCCC1
CATEGORY LABEL: 0 (no)

Dear colleague, could you confirm whether CC(C)C[C@@H]1NC(=O)[C@@H]2C[C@H](C(=O)NCCCCN(C)C)[C@H](c3cccc(OCCO)c3)N2C1=O has z-score at or above -0.4?
1 (yes)

Form field: z-score at least -0.4? Entry: CC(=O)NCCCC[C@@H]1NC(=O)[C@H]2C[C@@H](C(=O)NCCCC[N+](C)(C)C)[C@@H](c3cccc(OCCO)c3)N2C1=O
1 (yes)

Reported z-score at or above -0.4? CCCCC(=C=CC[C@@H](O)c1ccccc1OCCO)C[C@@H](O)COCc1ccccc1
1 (yes)

State whether the measured z-score reaches -0.4, counting equality as reaching it, for COC(=O)[C@@]1(Cc2ccc(F)cc2)[C@H]2c3cc(C(=O)N4CCCC4)n(CCc4ccc(O)c(O)c4)c3C[C@H]2CN1C(=O)c1ccccc1
0 (no)

====

experiment: anti-His antibody binders, primary screen, artefact control for SMM control protein annotation, biochemical, small-molecule microarray, 635 nm fluorescence (AID 1128); settings: anti-His Alexa647 antibody binding, higher = more signal;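 also: score merges feature fluorescence with signal-to-noise for each printed compound spot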
ENDPOINT NAME: composite z-score

Worked cases, answers included:
MOLECULE: CCCC[C@@H]1C[C@H]1[C@@H](NC(=O)c1cccs1)c1ccc(C(F)(F)F)cc1
composite z-score: 0.904
//
MOLECULE: CCCNC(=O)[C@@H]1c2ccccc2C(=O)N(C(C)C)[C@H]1c1ccc(CO)cc1
composite z-score: 3
//
MOLECULE: CC(CO)N1C(=O)[C@@H]2[C@H]3C(=O)OCC=C[C@H]3OC23C=CCN(CCN2CCOCC2)C(=O)[C@@H]13 (stereo not given in full)
composite z-score: 1.01
//
MOLECULE: Cc1ccc(S[C@]2(C(=O)O)CC(=O)N(Cc3ccccc3Cl)[C@@H]2c2ccc(CO)cc2I)cc1
composite z-score: 0.12

Give the measured composite z-score for C[C@@H]1ON(c2ccc(C(=O)OC(C)(C)C)cc2)[C@H](c2ccc(O)cc2)[C@H]1C(=O)N1C(=O)OC[C@H]1Cc1ccccc1
0.249

Specify measured composite z-score for CC(CO)N1C(=O)[C@@H]2[C@H]3C(=O)OCC=C[C@H]3OC23C=CCN(Cc2ccccc2)C(=O)[C@@H]13 (stereo not given in full) .
0.543

Entry COc1ccc(C#Cc2ccc3c(c2)[C@]2(C(=O)N3)[C@H](c3ccc(O)cc3)N3[C@H](c4ccccc4)[C@H](c4ccccc4)OC(=O)[C@H]3[C@@H]2C(=O)O)cc1 needs its composite z-score filled in; supply it.
2.03

Given CN(C)C(=O)[C@]1(CCS(=O)(=O)c2ccccc2)N=C(c2ccc(OCCCO)cc2)O[C@@H]1c1ccccc1N=[N+]=[N-] , respond with its composite z-score.
1.21

Return the recorded composite z-score value; entry: C[N+](C)(C)CCCC[C@@H]1NC(=O)[C@H]2C[C@@H](C(=O)NCCCCCCN)[C@@H](c3ccc(O)cc3)N2C1=O
3.15

Name the recorded composite z-score of the item [N-]=[N+]=NCc1ccccc1[C@@H]1OC(c2ccc(OCCCO)cc2)=N[C@]1(CCS(=O)(=O)c1ccccc1)C(=O)NCC(O)CO (stereo not given in full) in your answer.
2.39

Check the records and state composite z-score for Cc1ccc(S[C@]2(C(=O)NCCCN(C)C)CC(=O)N(C3CCCCC3)[C@@H]2c2ccc(CO)cc2)cc1
-0.693

Consider the molecule CC(C)Cc1ccc(CN2CC[C@@H](NC(=O)Nc3ccccc3)C2)cc1 . State its measured composite z-score.
-0.0844

Read off the recorded composite z-score for O=C1O[C@H](c2ccccc2)[C@H](c2ccccc2)N2[C@H]1[C@@H](C(=O)Nc1nc3ccccc3s1)[C@]1(C(=O)Nc3ccccc31)[C@H]2c1ccc(OCCO)cc1
1.55

Supply measured composite z-score of NC(=O)N1C(=O)C2C(C1=O)C1C=C(CCCO)C2C(c2cccs2)N1Cc1cccc(OC(F)(F)F)c1 (stereo not given) in your reply.
2.83

Hello, please tell me recorded composite z-score for this one: O=C1NC(=O)C2C1C=CC(C(O)c1c(F)cccc1Cl)N2Nc1ccc(Cl)cc1Cl (stereo not given)
1.23
